- Target Or Test System: apelin receptor NxStaR (Homo sapiens, UniProt P35414, F214L/I224A/N112A/S298A/T207M/T87V)
- Sequence (P35414 1-380 T87V/N112A/T207M/F214L/I224A/S298A): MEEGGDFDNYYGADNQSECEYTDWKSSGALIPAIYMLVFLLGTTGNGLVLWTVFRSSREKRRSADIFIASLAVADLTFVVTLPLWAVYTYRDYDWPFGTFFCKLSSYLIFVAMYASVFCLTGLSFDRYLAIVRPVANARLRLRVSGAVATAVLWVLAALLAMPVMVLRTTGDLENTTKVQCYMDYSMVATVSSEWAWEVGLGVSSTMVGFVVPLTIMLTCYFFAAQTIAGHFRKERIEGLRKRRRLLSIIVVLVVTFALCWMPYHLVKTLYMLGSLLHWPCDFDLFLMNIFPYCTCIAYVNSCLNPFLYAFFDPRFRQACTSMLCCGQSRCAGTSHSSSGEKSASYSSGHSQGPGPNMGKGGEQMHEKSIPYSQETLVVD
- Experiment Summary: SPR, pH dependence (Biacore 8K+), NxStaR
- Recorded Conditions: pH 6.0 (MES), 0.02% DDM, 5% DMSO, 10 °C, single determination
Observable: Kd (nM)

>  <Compound>
CCC(CC)n1c(Cc2cccs2)nc2cc(C(=O)N[C@H](CC(=O)O)CC(C)C)ccc21 [CMF-019]

>  <Unit Text>
nM

>  <Experimental Value>
3.4

$$$$
